Across several studies, compounds have been characterized by their pIC50 on High affinity nerve growth factor receptor (Homo sapiens, UniProt P04629); a selection follows.
pIC50: −log10 of the molar value.
MEASUREMENT_KIND: pIC50

Reference set (2 entries):
- Cc1ccc(-c2cn3ncc4c3nc2NCc2cc(F)cnc2O[C@@H](C)CNC4=O)cc1: 6.03
- CC(C)Oc1cc(-n2cnc3ccc(N[C@@H](C)c4ccc(F)cn4)nc32)n[nH]1: 8.52

A: COc1ccc(COc2ccc(Cn3cnc4cc(N5CCN(C)CC5)ccc43)cc2OC)cn1
B: CC(=O)Nc1ccc(-c2cc(OC3CCOCC3)c3c(C)n[nH]c3c2)cc1OCCOc1ccccc1
C: COc1ccc(COc2ccc(Cn3c(N)nc4cc(-c5cnn(C)c5)cnc43)cc2OC)cc1
D: C[C@H](Nc1ccc2ncn(-c3cc(C4CC4)[nH]n3)c2n1)c1ccc(F)cn1
Q: Form: Sort by [pIC50] Order [ ascending ] Output spec: a listing of the labels in the requested order.
A: A, B, D, C
(A: 5.95, B: 7.86, D: 8.52, C: 9.52)

====

Across several studies, molecules have been characterized by their IC50 on High affinity nerve growth factor receptor (Homo sapiens); a selection follows.

* COc1cc2nccc(Oc3ccc(NC(=O)c4cn(C(C)C)c(=O)n(-c5ccc(F)cc5)c4=O)cc3F)c2c2c1OCCO2 | 50 to 500 nM

Q: Recorded IC50 of COc1cc2nccc(Oc3ccc(NC(=O)c4cn(C)c(=O)n(-c5ccc(F)cc5)c4=O)c(F)c3)c2c2c1OCCO2 , please.
A: < 50 nM

Q: Quick one: Cc1cc(Nc2nc3c(cc2F)ncn3Cc2ncc(F)cc2F)n[nH]1
A: 283 nM

Q: Quick one: Fc1cc(F)cc(Nc2ccc3[nH]nc(C#Cc4ccccn4)c3c2)c1
A: > 1000 nM

====

Across several studies, molecules have been characterized by their IC50 on High affinity nerve growth factor receptor (Homo sapiens, UniProt P04629); a selection follows.

Reference set (3 entries):
* CC(C)Oc1cc(Nc2nc3c(cc2F)ncn3[C@@H](CO)c2ccc(F)cn2)n[nH]1 | 3 nM
* COCCN1C[C@@H](NC(=O)Nc2c(-c3ccccc3)cnn2C)[C@H](c2ccccc2)C1 (relative stereo) | 100 to 1000 nM
* Fc1nc(NCc2ccc(C(F)(F)F)nc2)ccc1Cc1c[nH]c2ncncc12 | ≤ 10000 nM

Q: Item COCCN1C[C@@H](NC(=O)Nc2cc(=O)n(CC(F)(F)F)nc2-c2ccccc2)[C@H](c2ccc(F)c(F)c2)C1 with High affinity nerve growth factor receptor (Homo sapiens, UniProt P04629) - IC50?
A: 100 to 1000 nM

Q: Quick one: COCCN1C[C@@H](NC(=O)Nc2c(Br)c(COC3CCN(C(=O)OC(C)(C)C)CC3)nn2-c2ccccc2)[C@H](c2ccc(F)c(F)c2)C1
A: < 100 nM

Q: Quick one: COc1cc(C(C)n2cnc3cc(C#CCCO)ccc32)ccc1OCc1ccc(C(F)(F)F)nc1 (centres unmarked)
A: 692 nM

Q: Quick one: CCOc1cc2nccc(Oc3ccc(NC(=O)c4c(OC)ccn(-c5ccc(F)cc5)c4=O)c(Cl)c3)c2c2c1OCCO2
A: < 50 nM

====

Across several studies, molecules have been characterized by their IC50 on High affinity nerve growth factor receptor (Homo sapiens, UniProt P04629); a selection follows.
MEASUREMENT_KIND: IC50 (nM)

Reference set (2 entries):
- NC(=O)c1ccc(-c2cc(OC3CCCC3)c3c(N)n[nH]c3c2)cc1N1CCN(C(=O)C2CC2)CC1: 17.4
- COc1ccc(COc2ccc(Cn3cnc4cc(-n5cc(C6CCCNC6)nn5)cnc43)cc2OC)cn1 (stereo not drawn): 32

P: NC(=O)c1ccc(-c2cc(OC3CCCC3)c3c(N)n[nH]c3c2)cc1N1CCN(C2CCCCC2)CC1
Q: COc1cc(C(C)n2cnc3cc(-c4cnn(C)c4)cnc32)ccc1OCc1ccc(C(F)(F)F)nc1 (stereo not drawn)
R: COc1ccc(COc2ccc(Cn3cnc4cc(N5CCC(N)CC5)cnc43)cc2OC)cn1
S: Cn1cc2cc(NC(=O)c3coc4c3C(=O)NCC4)ccc2n1
T: COc1ccc(NC(=O)c2coc3c2C(=O)N(C)CC3)cn1
Q: Form: Sort by [IC50] Order [ ascending ] Output spec: a listing of the labels in the requested order.
A: Q, P, S, R, T
